- TESTED SYSTEM: Huntingtin (Homo sapiens, UniProt P42858)
- TEST PROTOCOL: Inhibition of mutant HTT (unknown origin)
- Sequence (P42858 whole entry, looked up, change not shown): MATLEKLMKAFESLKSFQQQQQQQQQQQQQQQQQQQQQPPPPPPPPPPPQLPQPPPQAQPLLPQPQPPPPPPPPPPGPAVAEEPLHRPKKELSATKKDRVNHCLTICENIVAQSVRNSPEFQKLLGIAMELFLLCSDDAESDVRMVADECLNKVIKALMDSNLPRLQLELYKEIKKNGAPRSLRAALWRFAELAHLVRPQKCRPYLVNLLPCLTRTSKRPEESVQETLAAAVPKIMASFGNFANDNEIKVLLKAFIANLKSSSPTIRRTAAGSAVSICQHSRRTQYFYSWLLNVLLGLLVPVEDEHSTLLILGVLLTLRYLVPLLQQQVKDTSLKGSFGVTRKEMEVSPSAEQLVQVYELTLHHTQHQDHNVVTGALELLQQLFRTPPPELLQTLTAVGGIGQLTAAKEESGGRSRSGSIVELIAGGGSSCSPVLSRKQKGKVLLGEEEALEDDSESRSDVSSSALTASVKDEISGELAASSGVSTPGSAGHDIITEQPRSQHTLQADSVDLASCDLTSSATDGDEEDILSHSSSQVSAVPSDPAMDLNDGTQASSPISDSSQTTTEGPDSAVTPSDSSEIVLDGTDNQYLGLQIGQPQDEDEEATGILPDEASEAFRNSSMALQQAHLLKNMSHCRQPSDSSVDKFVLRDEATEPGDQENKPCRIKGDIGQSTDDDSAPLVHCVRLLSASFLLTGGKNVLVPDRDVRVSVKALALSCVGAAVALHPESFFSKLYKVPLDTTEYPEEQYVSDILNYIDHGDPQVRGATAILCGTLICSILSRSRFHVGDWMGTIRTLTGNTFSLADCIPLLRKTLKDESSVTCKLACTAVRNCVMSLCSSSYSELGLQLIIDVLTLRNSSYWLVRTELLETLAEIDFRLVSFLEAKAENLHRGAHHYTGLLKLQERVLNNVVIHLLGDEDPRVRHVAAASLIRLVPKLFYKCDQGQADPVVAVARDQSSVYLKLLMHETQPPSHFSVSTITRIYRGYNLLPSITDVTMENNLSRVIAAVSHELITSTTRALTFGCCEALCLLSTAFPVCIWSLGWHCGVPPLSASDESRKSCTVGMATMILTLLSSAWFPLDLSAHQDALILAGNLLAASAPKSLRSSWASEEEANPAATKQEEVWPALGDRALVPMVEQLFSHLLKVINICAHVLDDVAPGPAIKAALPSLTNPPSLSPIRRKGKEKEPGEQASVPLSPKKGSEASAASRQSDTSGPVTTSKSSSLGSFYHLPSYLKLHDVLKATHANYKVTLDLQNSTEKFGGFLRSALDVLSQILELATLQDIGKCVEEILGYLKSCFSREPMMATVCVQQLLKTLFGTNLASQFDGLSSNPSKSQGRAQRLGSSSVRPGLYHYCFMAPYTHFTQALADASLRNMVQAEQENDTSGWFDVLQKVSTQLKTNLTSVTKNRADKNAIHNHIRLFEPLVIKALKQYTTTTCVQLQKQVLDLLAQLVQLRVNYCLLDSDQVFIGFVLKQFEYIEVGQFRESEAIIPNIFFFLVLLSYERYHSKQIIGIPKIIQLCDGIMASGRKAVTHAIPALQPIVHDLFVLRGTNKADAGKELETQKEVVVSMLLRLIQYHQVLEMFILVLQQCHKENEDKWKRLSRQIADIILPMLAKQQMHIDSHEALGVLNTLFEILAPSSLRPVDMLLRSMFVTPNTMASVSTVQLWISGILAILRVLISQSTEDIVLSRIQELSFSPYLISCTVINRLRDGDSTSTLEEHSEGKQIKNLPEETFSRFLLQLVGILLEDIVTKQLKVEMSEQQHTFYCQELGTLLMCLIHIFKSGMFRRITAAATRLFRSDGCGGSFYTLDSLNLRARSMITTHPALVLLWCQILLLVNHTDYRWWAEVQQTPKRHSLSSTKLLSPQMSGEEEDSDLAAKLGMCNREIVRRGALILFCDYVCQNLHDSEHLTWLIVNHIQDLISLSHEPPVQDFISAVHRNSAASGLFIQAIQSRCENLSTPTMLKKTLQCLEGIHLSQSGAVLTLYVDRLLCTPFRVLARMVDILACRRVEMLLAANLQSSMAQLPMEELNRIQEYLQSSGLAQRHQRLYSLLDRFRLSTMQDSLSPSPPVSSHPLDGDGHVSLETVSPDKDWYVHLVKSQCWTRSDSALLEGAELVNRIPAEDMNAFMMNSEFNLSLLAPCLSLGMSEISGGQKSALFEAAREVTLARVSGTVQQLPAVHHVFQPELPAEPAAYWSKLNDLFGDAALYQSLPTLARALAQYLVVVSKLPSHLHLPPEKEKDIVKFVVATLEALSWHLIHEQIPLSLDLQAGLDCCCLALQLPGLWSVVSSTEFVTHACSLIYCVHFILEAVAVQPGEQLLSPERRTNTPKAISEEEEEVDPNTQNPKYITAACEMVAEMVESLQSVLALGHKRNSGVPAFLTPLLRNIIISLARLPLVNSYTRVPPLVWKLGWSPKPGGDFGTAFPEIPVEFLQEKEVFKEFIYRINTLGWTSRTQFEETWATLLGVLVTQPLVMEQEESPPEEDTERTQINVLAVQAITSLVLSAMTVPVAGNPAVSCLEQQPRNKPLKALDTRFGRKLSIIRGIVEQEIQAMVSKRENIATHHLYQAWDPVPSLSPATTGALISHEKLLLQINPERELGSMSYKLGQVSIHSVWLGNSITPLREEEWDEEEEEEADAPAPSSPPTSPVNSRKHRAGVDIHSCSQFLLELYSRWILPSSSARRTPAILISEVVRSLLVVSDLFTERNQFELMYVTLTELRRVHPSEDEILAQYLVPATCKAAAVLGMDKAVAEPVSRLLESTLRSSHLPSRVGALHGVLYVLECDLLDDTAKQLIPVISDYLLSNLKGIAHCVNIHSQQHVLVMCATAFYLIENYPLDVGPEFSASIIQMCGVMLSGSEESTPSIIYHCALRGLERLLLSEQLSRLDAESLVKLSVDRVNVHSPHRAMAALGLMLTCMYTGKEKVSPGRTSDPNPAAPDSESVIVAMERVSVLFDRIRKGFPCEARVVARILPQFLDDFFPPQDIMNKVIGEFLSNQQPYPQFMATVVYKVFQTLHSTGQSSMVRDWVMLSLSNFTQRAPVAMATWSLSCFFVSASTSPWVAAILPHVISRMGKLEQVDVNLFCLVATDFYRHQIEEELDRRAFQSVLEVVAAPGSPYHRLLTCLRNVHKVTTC
pEC50: −log10 of the molar value.
PROPERTY LABEL: pEC50

[1] C/C(=C/C(=O)c1ccc(Cl)cc1)Nc1cccc(O)c1
[2] Nn1cnc2c(c1=O)C1(CCCC1)Cc1ccccc1-2
# min-compare on pEC50 between 1 and 2 Please reply using the label of the selected record.
1

---

- TEST PROTOCOL: in vivo
- TEST CONDITIONS: mouse, po
PROPERTY LABEL: bioavailability (%)
Expressed in %, but write only the number.

Find the recorded bioavailability belonging to O=c1cc(N2CCOCC2)cc(N2CCCCC[C@@H]2Cc2ccccc2)[nH]1 and report it.
68

---

- TEST PROTOCOL: Solubility of the compound
- Format: physicochemical
PROPERTY LABEL: solubility (µg/mL)

1. C[C@@H]1CN(CC(=O)Nc2ccc3c(c2)Cc2cccc(-c4cc(=O)cc(N5CCOCC5)o4)c2S3)C[C@H](C)O1 :: 46

[A] O=c1cc(N2CCOCC2)cc(N2CCCCC[C@@H]2Cc2ccccc2)[nH]1
[B] COc1ccc2c(c1)Cc1cccc(-c3cc(=O)cc(N4CCOCC4)o3)c1S2
// which entry has the larger solubility value, A or B ? Please reply using the label of the selected record.
A

---

- TESTED SYSTEM: Huntingtin (Homo sapiens, UniProt P42858)
- TEST PROTOCOL: Inhibition of mutant HTT (unknown origin) mediated HD exon 1 protein aggregation
PROPERTY LABEL: IC50 (µM)

[a] Cc1cc(O)c(C)c2sc(N)nc12
[b] CN(C)c1nc2ccc(O)cc2s1
// which entry has the larger IC50 value, a or b ? Please reply using the label of the selected record.
b
(b: 100 µM, a: 40 µM)

---

- TESTED SYSTEM: Mitogen-activated protein kinase 14 (Homo sapiens, UniProt Q16539)
- Sequence (Q16539 whole entry): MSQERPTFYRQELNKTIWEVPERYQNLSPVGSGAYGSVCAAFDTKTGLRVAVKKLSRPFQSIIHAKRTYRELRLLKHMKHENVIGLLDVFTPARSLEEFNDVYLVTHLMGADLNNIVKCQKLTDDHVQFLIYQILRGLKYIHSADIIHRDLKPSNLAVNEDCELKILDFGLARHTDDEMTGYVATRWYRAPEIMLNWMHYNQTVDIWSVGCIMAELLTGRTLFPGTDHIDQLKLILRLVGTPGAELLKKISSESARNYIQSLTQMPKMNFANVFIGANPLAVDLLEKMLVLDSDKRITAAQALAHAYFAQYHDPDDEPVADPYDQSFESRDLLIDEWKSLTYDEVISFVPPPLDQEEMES
- TEST PROTOCOL: Inhibition of p38alpha (unknown origin)
PROPERTY LABEL: IC50 (nM)

# count of solved cases: 3
1) Clc1ccc(-c2[nH]ncc2-c2ccncn2)cc1 :: 24
2) CSc1nc(-c2ccc(F)cc2)c(-c2ccnc(Nc3ccc(NC(=S)Nc4ccc5c(c4)C(=O)OC54c5ccc(O)cc5Oc5cc(O)ccc54)cc3)c2)[nH]1 :: 26
3) COC(C)CC(C)Nc1cc(-c2c(-c3ccc(F)cc3)nc(S/C=C\C(=O)O)n2CC(OC)OC)ccn1 (configuration not stated) :: 34

[A] O=C1OC2(c3ccc(O)cc3Oc3cc(O)ccc32)c2ccc(NC(=S)Nc3ccc(Nc4cc(-c5[nH]cnc5-c5ccc(F)cc5)ccn4)cc3)cc21
[B] FC1(F)CCC(Nc2nccc(-c3cn[nH]c3C3(C(F)(F)F)CC3)n2)CC1
[C] Nc1ccc(Nc2cc(-c3[nH]cnc3-c3ccc(F)cc3)ccn2)cc1
Sort these molecules on IC50 so the largest reading comes first. List labels; respect the requested ordering.
B, A, C

---

- TESTED SYSTEM: Huntingtin (Homo sapiens)
- TEST PROTOCOL: Inhibition of HTT (unknown origin)
- Sequence (P42858 whole entry): as the sequence (P42858 whole entry, looked up, change not shown) above
PROPERTY LABEL: IC50 (µM)

1) Cc1ccccc1OCC(=O)Nc1ccc(Nc2ccccc2)cc1 :: 5

[A] Nc1nc(C(=O)N2N=C3CCCCC3C2(O)C(F)(F)F)cs1 (stereo not given)
[B] C[C@@H](N)[C@H]1CC[C@H](C(=O)Nc2ccncc2)CC1
[C] Cc1cccc(OCC(=O)Nc2ccc(Nc3ccccc3)cc2)c1
[D] CCCc1cc(OC(=O)c2ccccc2F)n(-c2cccc(F)c2)n1
With regard to IC50, arrange the entries in ascending order, please. List labels; respect the requested ordering.
A, B, C, D
